# System Under Test: T1, human MSLN-FL-his protein (human, UniProt Q13421 296-580)
# T1 construct: made in HEK293E cells, purified on nickel column; also called hMSLN-FL-his; human MSLN full-length protein; not shown: His tag
# T1 sequence (Q13421 other isoform, or with tags, fused parts or gaps): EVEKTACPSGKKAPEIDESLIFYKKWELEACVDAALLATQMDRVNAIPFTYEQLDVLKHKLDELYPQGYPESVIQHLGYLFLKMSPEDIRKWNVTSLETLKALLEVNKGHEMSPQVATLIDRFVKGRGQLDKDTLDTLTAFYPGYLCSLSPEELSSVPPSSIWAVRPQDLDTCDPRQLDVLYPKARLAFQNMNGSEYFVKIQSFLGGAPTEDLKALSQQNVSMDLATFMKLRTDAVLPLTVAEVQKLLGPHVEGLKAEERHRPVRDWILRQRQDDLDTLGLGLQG
# Procedure Summary: SPR (Biacore), antibody captured on Protein A chip;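 note: flow cell at 25 °C, antigen injected for 240 s at five concentrations from 200 nM downward, dissociation followed up to 600 s, double-referenced, fitted with Langmuir 1:1 model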
Assignment: determine reported kon for the given binders.
The response must be a number in M⁻¹ s⁻¹ with no trailing unit.

Task: Which kon is reported for this binder? S009-F7.25.19 (antibody, human IgG1, kappa, V domains shown, human-murine chimeric antibody, human IgG1/kappa constant regions) VH: QVQLQQPGTELVKPGASVKLSCKASGYTFTSYWMHWVKQRPGQGLEWIGNIIPSNGGTKYNEKFKSKATLTVDKSSSTAYMQLSSLTSEDSAVYYCSPHYYGGSPGFAYWGQGTLITVSA VL: DIVMTQSQKFMSTSVGDRVSVICKASQNVGTNVAWYQQKPGQSPKALIYSASYRYSGVPDRFTGSGSGTDFTLTISNVQSEDLAEYFCQQYNSYPLTFGGGTKLEIKR
Result: 417000

Task: Which kon is reported for this binder? S009-F8-31.22 (antibody, human IgG1, kappa, V domains shown, human-murine chimeric antibody, human IgG1/kappa constant regions) VH: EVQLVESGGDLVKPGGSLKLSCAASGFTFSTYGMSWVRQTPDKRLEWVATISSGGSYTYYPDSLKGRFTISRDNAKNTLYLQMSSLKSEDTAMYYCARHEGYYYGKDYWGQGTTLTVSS VL: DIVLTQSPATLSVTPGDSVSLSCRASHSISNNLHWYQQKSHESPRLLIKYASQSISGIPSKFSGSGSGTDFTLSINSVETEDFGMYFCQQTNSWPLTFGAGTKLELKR
Result: 315000

Task: Which kon is reported for this binder? S009-F7.44.20 (antibody, human IgG1, kappa, V domains shown, human-murine chimeric antibody, human IgG1/kappa constant regions) VH: EVQLQQSGPELVKPGASVKIPCKASGYTFTDYNMDWVKQSHGKSLEWIGDINPSTGGTIYNQKFNGKATLTEDKSASTVYMEFRSLTSDDTAVYYCARRRIGTGYFDVWGTGTTVTVSS VL: QIVLTQSPALMSASPGEKVTLTCSASSSVISSYLSWYQQKPGSSPKLLIYRTSNLASGVPARFSGSGSGTSYSLTISSMEAEDAASYFCHQWSSFPYTFGGGTKLEIKR
Result: 351000

Task: Which kon is reported for this binder? S009-F8-33.12 (antibody, human IgG1, kappa, V domains shown, human-murine chimeric antibody, human IgG1/kappa constant regions) VH: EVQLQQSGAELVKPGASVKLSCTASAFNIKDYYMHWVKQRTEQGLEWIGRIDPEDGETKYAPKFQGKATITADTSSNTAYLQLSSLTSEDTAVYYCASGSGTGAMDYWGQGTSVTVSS VL: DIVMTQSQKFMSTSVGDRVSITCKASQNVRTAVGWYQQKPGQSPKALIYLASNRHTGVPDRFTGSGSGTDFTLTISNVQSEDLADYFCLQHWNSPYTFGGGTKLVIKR
Result: 6.27e+06

Task: Which kon is reported for this binder? S009-F8-29.1 (antibody, human IgG1, kappa, V domains shown, human-murine chimeric antibody, human IgG1/kappa constant regions) VH: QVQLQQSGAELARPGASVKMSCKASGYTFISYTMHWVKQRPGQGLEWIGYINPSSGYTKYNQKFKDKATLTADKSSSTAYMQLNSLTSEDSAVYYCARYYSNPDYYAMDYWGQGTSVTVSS VL: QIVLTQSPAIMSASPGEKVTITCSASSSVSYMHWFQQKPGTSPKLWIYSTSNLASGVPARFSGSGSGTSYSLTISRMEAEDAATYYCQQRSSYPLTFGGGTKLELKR
Result: 728000
